# Tested on: HEK293
# ASSAY_REMARKS: Cytotoxic Profiling of Annotated Libraries Using Quantitative High-Throughput Screening (AID 1296008); further: on the % scale 0 is the no-effect control and ±100 the full control effect; nearly all actives have a fitted effect of over 60% in size
# RECORDED_CONDITIONS: Five cell lines viability, CellTiter-Glo ATP luminescence, 48-72 h; active compounds read low
Inconclusive results are not listed.
MEASURE_NAME: max response (%)
One number for each entry, in %.

{"columns": ["MOLECULE", "TARGET_DESC", "max response, %"],
 "data": [
  ["O=c1cccc2n1CC1CNC[C@H]2C1", "HEK293", -2.71]
]}

Working through the 4 molecules below one at a time, give max response for each.
1. CC(O)=C(C#N)C(=O)Nc1cc(Br)ccc1Br
2. O=C(O)CNC(=O)c1c(O)c2ccccc2n(Cc2ccccc2)c1=O
3. CC1=NN=C(c2ccc(N)cc2)c2cc3c(cc2C1)OCO3
4. COCCOCCO

result:
1. -1.81
2. 1.22
3. 3.46
4. -2.65

* * *

# ASSAY_REMARKS: qHTS of pediatric cancer cell lines to identify multiple opportunities for drug repurposing: Confirmatory screen for NB1643 cells (AID 1347109); further: nearly all actives have a fitted effect of over 45% in size
# RECORDED_CONDITIONS: NB1643 neuroblastoma cell viability; series mostly up to 45.9 µM
Inconclusive results are not listed. The source made the active and inactive calls. Calls come from the whole dose curve; as a rule, active = well fitted cell-killing curve with a large enough effect; inconclusive = small, poorly fitted or top-dose-only effect, or effect the other way; inactive = no such curve, though single readings can be large or run the other way.
# valid calls are Yes for active, No for inactive; nothing else

{"columns": ["MOLECULE", "QUALITATIVE_LABEL"],
 "data": [
  ["CC[C@@]1(O)C(=O)OCc2c1cc1n(c2=O)Cc2cc3ccccc3nc2-1", "Yes"]
]}

query: Which outcome was assigned to CO[C@H]1CCC(O[C@H]2C[C@H]([C@]3(C)CC[C@]4(C[C@H](O)[C@@H](C)[C@@H]([C@@H](C)C=C(C)C(=O)[C@H](C)C[C@H](C)C(=O)O)O4)O3)O[C@]3(O[C@@H]([C@H]4O[C@@](O)(CO)[C@H](C)C[C@H]4C)C[C@H]3C)[C@H]2C)O[C@H]1C (some centres undefined) in this test?
result: Yes

query: Which outcome was assigned to "C[C@@H]1O[C@@H](O[C@@H]2C=C3CC[C@@H]4[C@@H](CC[C@]5(C)[C@H](c6ccc(=O)oc6)CC[C@@]45O)[C@@]3(C)CC2)[C@H](O)[C@H](O)[C@H]1O" in this test?
result: Yes

query: Which outcome was assigned to "C[C@]12Cc3cn[nH]c3C[C@@H]1CC[C@@H]1[C@H]2CC[C@@]2(C)[C@H]1CC[C@]2(C)O" in this test?
result: No

* * *

# ASSAY_REMARKS: Quantitative High-Throughput drug screen in 47 multiple myeloma cell lines against the NCATS MIPE library collection: H1112_PLB cell viability assay (AID 1918967; further: nearly all actives have a fitted effect of over 30% in size)
# RECORDED_CONDITIONS: H1112 myeloma cells viability, ATP luminescence, 48 h; series mostly up to 45.8 µM
Inconclusive results are not listed. Active and inactive are the calls of the source. The call rests on the fitted dose curve; in most records, active means well fitted cell-killing curve with a large enough effect; inconclusive means small, poorly fitted or top-dose-only effect, or effect the other way; inactive means no such curve, though single readings can be large or run the other way.
# valid calls are yes (1) for active, no (0) for inactive; nothing else

{"columns": ["INPUT_SMILES", "QUALITATIVE_LABEL"],
 "data": [
  ["C[C@@H]1CC[C@@]2(OC1)O[C@H]1C[C@H]3[C@@H]4CC=C5C[C@@H](O[C@@H]6O[C@H](CO)[C@@H](O[C@@H]7O[C@@H](C)[C@H](O)[C@@H](O)[C@@H]7O)[C@H](O)[C@@H]6O[C@@H]6O[C@@H](C)[C@H](O)[C@@H](O)[C@@H]6O)CC[C@]5(C)[C@@H]4CC[C@]3(C)[C@@H]1[C@H]2C", "yes (1)"],
  ["CC(C)[C@H]1C(=O)N[C@H](CO)Cc2c[nH]c3cccc(c23)N1C", "no (0)"]
]}

query: Which outcome was assigned to "CC=C(C)C(=O)O[C@H]1C(C)=C2[C@@H]3OC(=O)[C@@](C)(O)[C@@]3(O)[C@@H](OC(=O)CCC)C[C@](C)(OC(C)=O)[C@@H]2[C@@H]1OC(=O)CCCCCCC" in this test?
result: yes (1)

query: Which outcome was assigned to "CCN1C[C@]2(OC(=O)c3ccccc3NC(C)=O)CC[C@H](OC)[C@@]34[C@H]5CC6[C@@H](OC)C[C@](O)(C(C[C@@H]23)[C@@H]14)[C@@]5(O)[C@@H]6OC" in this test?
result: no (0)

* * *

# ASSAY_REMARKS: Quantitative High-Throughput drug screen in 47 multiple myeloma cell lines against the NCATS MIPE library collection: LP1_DSMZ cell viability assay (AID 1918982); further: nearly all actives have a fitted effect of over 35% in size
# RECORDED_CONDITIONS: LP1 myeloma viability, CellTiter-Glo ATP luminescence, 48 h; series mostly up to 45.8 µM
Inconclusive results are not listed. Calls of active or inactive are those of the source. Calls follow the shape of the dose curve; as a rule, active = well fitted cell-killing curve with a large enough effect; inconclusive = small, poorly fitted or top-dose-only effect, or effect the other way; inactive = no such curve, though single readings can be large or run the other way.
# valid calls are true (1) = active, false (0) = inactive; nothing else

Answered cases to consult:
{"columns": ["MOLECULE", "QUALITATIVE_LABEL"],
 "data": [
  ["COc1cc2cc(c1Cl)N(C)C(=O)C[C@H](OC(=O)C(C)C)[C@]1(C)O[C@H]1[C@H](C)[C@@H]1C[C@@](O)(NC(=O)O1)[C@H](OC)C=CC=C(C)C2", "false (0)"],
  ["C#C[C@]1(O)C=C[C@@H]2[C@@H]3CCC4=CC(=O)CC[C@@H]4[C@H]3CC[C@@]21CC", "false (0)"],
  ["C=C1C[C@H]2[C@H]3CCC(=O)[C@@]3(C)CC[C@@H]2[C@@]2(C)C=CC(=O)C=C12", "false (0)"],
  ["Oc1ccc2c3c1O[C@H]1c4[nH]c5c(c4C[C@@]4(O)[C@@H](C2)N(CC2CC2)CC[C@]314)C[C@@]1(O)[C@H]2Cc3ccc(O)c4c3[C@@]1(CCN2CC1CC1)[C@H]5O4", "false (0)"],
  ["O=C(Oc1ccc([N+](=O)[O-])cc1)N1CCC(C(O)(c2ccc3c(c2)OCO3)c2ccc3c(c2)OCO3)CC1", "false (0)"]
]}

query: Which outcome was assigned to CCCC[N+]1(C)[C@H]2CC(OC(=O)[C@H](CO)c3ccccc3)C[C@H]1[C@H]1O[C@H]12 (some centres not stated) in this test?
result: false (0)

query: Which outcome was assigned to "CC[C@@]1(O)C(=O)OCc2c1cc1n(c2=O)Cc2cc3ccccc3nc2-1" in this test?
result: true (1)

* * *

# ASSAY_REMARKS: qHTS Screen of the MIPE 4.0 Collection Against Ewings Sarcoma (EW8) (AID 1259255); further: nearly all actives have a fitted effect of over 35% in size;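 on viability: 100% = DMSO-treated cells and 0% = medium-only wells without cells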
# RECORDED_CONDITIONS: EW8 Ewing sarcoma viability, CellTiter-Glo, 48 h; series mostly up to 45.8 µM
Records with an inconclusive call do not appear. Activity calls are given as the source filed them. Calls come from the whole dose curve; as a rule, active = well fitted inhibition curve with a large enough effect; inconclusive = small, poorly fitted or top-dose-only effect; inactive = no such curve, though single readings can be large or run the other way.
# valid calls are T = active, F = inactive; nothing else

query: Which outcome was assigned to "CC1=NN=C(c2ccc(N)cc2)c2cc3c(cc2C1)OCO3" in this test?
result: F

query: Which outcome was assigned to "Cc1ccccc1-n1c(Cn2cnc3c(N)ncnc32)nc2cccc(C)c2c1=O" in this test?
result: T

query: Which outcome was assigned to CN1[C@H]2CC(O)C[C@H]1[C@H]1O[C@H]12 (some centres undefined) in this test?
result: T

query: Which outcome was assigned to "CC(C)N(CCNC(=O)CN1CCCC1=O)C(C)C" in this test?
result: F

query: Which outcome was assigned to "CSCC[C@@H](NC(=O)[C@@H](Cc1ccccc1)NC(=O)CNC(=O)CNC(=O)[C@@H](N)Cc1ccc(O)cc1)C(=O)O" in this test?
result: F

query: Which outcome was assigned to "CC(=O)O[C@@]12CO[C@H]1C[C@H](O)[C@@]1(C)C(=O)[C@H](O)C3=C(C)[C@@H](O)C[C@@](O)([C@@H](OC(=O)c4ccccc4)[C@@H]21)C3(C)C" in this test?
result: T

* * *

# ASSAY_REMARKS: qHTS of pediatric cancer cell lines to identify multiple opportunities for drug repurposing: Primary screen for NB1643 cells (AID 1347099);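 further: plate controls were DMSO neutral control for no effect and bortezomib positive control for full effect; nearly all actives have a fitted effect of over 50% in size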
# RECORDED_CONDITIONS: NB1643 neuroblastoma viability, CellTiter-Glo luminescence, 48 h; series mostly up to 46 µM
Inconclusive results are not listed. Active and inactive are the calls of the source. Calls come from the whole dose curve; as a rule, active = well fitted cell-killing curve with a large enough effect; inconclusive = small, poorly fitted or top-dose-only effect; inactive = no such curve, though single readings can be large or run the other way.
# valid calls are active, inactive; nothing else

Answered cases to consult:
{"columns": ["COMPOUND", "QUALITATIVE_LABEL"],
 "data": [
  ["Cc1nc(-c2ccc(-c3ccc(C(=O)N4CCc5cc6c(cc54)C4(CCN(C)CC4)CO6)cc3)c(C)c2)no1", "inactive"],
  ["O=[N+]([O-])c1c(Cl)c(Cl)cc(Cl)c1Cl", "inactive"],
  ["Nc1ccc(Cl)cc1", "inactive"],
  ["C1CCC(NC2CCCCC2)CC1", "inactive"],
  ["O=C(O)CCCOc1ccc(Cl)cc1Cl", "inactive"]
]}

query: Which outcome was assigned to CC(C)NCC(O)c1ccc([N+](=O)[O-])cc1 (stereo unspecified) in this test?
result: inactive

query: Which outcome was assigned to "CC[N+]1(CCOC(=O)C(O)(c2ccccc2)c2ccccc2)CCCCC1" in this test?
result: inactive
